Exercise: for every item that follows, state its recorded HC10 (concentration required to lyse 10% of human erythrocytes).
Tested on: human erythrocytes
Format: cell-based
Conditions: red cells of human, 1 h
Non-standard residues stand in square brackets, D forms with d. Residues, ends and D or L forms follow the SMILES beside them. Gly(N(CH2)3NH2) = NCCCNCC(=O)O; Nphe = O=C(O)CNCc1ccccc1; Nlys = NCCCCNCC(=O)O

In: Checklist item: HC10 (concentration required to lyse 10% of human erythrocytes) tested on human erythrocytes, entry Cc1cc(C)cc(CN2CC(=O)N(CCCN)CC(=O)N(Cc3cc(C)cc(C)c3)CC(=O)N(CCCN)CC(=O)N(Cc3cc(C)cc(C)c3)CC(=O)N(CCCN)CC2=O)c1 [Compound C124, C(NapNdmb)3] , value?
Out: 125 µg/mL

In: Checklist item: HC10 (concentration required to lyse 10% of human erythrocytes) tested on human erythrocytes, entry NCCCCN1CC(=O)N(Cc2ccccc2)CC(=O)N(CCCCN)CC(=O)N(Cc2ccccc2)CC(=O)N(CCCCN)CC(=O)N(Cc2ccccc2)CC1=O [Compound 30, C(NabNpm)3] (cyclo([Nlys][Nphe][Nlys][Nphe][Nlys][Nphe])) , value?
Out: >250 µg/mL

In: Checklist item: HC10 (concentration required to lyse 10% of human erythrocytes) tested on human erythrocytes, entry N=C(N)NCCCCN1CC(=O)N(CC(c2ccccc2)c2ccccc2)CC(=O)N(CCCCNC(=N)N)CC(=O)N(CC(c2ccccc2)c2ccccc2)CC(=O)N(CCCCNC(=N)N)CC(=O)N(CC(c2ccccc2)c2ccccc2)CC(=O)N(CCCCNC(=N)N)CC(=O)N(CC(c2ccccc2)c2ccccc2)CC(=O)N(CCCCNC(=N)N)CC(=O)N(CC(c2ccccc2)c2ccccc2)CC1=O [Compound 31, C(NgbNdp)5] , value?
Out: >62.5 µg/mL

In: Checklist item: HC10 (concentration required to lyse 10% of human erythrocytes) tested on human erythrocytes, entry NCCCN1CC(=O)N(Cc2ccccc2)CC(=O)N(CCCN)CC(=O)N(Cc2ccccc2)CC(=O)N(CCCN)CC(=O)N(Cc2ccccc2)CC1=O [Compound 23, C(NapNpm)3] (cyclo([Nphe][Gly(N(CH2)3NH2)][Nphe][Gly(N(CH2)3NH2)][Nphe][Gly(N(CH2)3NH2)])) , value?
Out: >250 µg/mL

----------
Test: in vitro
Conditions: LC50 (50% lethal concentration), HeLa cells, 1 hr incubation at 37° C.
Non-standard residues stand in square brackets, D forms with d. Residues, ends and D or L forms follow the SMILES beside them. Orn = NCCC[C@H](N)C(=O)O
Exercise: for every item that follows, state its recorded CC50.
API: value field is a number in µg/mL; no unit string.

In: Quick one: CC50 of CC(C)C[C@@H]1NC(=O)[C@H](CCCN)NC(=O)[C@H](C(C)C)NC(=O)[C@@H]2CCCN2C(=O)[C@@H](Cc2ccccc2)NC(=O)[C@H](CC(C)C)NC(=O)[C@H](CCCN)NC(=O)[C@H](C(C)C)NC(=O)[C@@H]2CCCN2C(=O)[C@@H](Cc2ccccc2)NC1=O [Gramicidin S, reference compound] (cyclo(V[Orn]L[dF]PV[Orn]L[dF]P)) ?
Out: 31.3

In: Quick one: CC50 of NCCCN1CC(=O)N(CC(c2ccccc2)c2ccccc2)CC(=O)N(CCCN)CC(=O)N(CC(c2ccccc2)c2ccccc2)CC(=O)N(CCCN)CC(=O)N(CC(c2ccccc2)c2ccccc2)CC1=O [Compound C3, C(NapNdp)3] ?
Out: 63
